These data points were gathered from patent US20160289285A1.

Exercise: state measured pIC50 for each of the binders provided.
TESTED ON: T1, human HGF (human, UniProt P14210 32-728)
T1 construct: also called hepatocyte growth factor
T1 sequence (P14210 32-728 limits assumed): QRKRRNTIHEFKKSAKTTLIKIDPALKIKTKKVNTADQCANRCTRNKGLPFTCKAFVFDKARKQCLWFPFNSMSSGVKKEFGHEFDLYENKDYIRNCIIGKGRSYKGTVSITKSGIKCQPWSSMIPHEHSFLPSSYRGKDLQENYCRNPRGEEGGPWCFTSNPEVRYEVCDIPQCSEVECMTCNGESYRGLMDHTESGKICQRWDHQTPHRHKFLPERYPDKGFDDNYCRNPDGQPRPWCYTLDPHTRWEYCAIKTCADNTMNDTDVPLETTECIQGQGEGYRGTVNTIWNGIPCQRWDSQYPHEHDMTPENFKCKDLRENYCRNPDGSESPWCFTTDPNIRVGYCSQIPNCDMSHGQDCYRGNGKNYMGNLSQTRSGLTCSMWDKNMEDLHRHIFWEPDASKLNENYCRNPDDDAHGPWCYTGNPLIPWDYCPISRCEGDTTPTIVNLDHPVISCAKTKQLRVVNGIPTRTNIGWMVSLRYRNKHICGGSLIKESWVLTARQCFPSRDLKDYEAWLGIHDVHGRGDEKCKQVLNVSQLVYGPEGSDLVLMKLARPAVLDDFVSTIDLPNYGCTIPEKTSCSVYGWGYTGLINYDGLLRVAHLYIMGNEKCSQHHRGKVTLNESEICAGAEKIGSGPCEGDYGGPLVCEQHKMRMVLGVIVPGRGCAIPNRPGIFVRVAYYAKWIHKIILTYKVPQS
TEST DETAILS: cMet receptor competition ELISA; 5 nM human HGF, immobilised human cMet
Scale explanation: pIC50 corresponds to minus log10 of a concentration expressed in moles per litre.

Q. Identify measured pIC50 associated with Protein #23 (designed binder) MRGSHHHHHHGSDLGKKLLEAARAGQDDEVRILMANGADVNAKDRFGDTPLHLAADIGHLKIVEVLLKHGADVNAEDWFGNTPLHLAASMGHLEIVEVLLKYGADVNAMDDYGNTPLHLAANTGHLEIVEVLLKHGADVNAQDKFGKTAFDISIDNGNEDLAEILQKAA
A. 9.04

Q. Hello, please tell me recorded pIC50 for this one: Protein #26 (designed binder) MRGSHHHHHHGSDLGKKLLEAARAGQDDEVRILLKAGADVNAKDRYGDTPLHLAADIGHLEIVEVLLKAGADVNAEDYFGNTPLHLAASYGHLEIVEVLLKAGADVNAKDDYGNTPLHLAANTGHLEIVEVLLKAGADVNAQDKSGKTPADLAADAGHEDIAEVLQKAA
A. 9.21

Q. // fetch pIC50 given entry Protein #28 (designed binder) MRGSHHHHHHGSDLGMKLLEAARAGQDDEVRILMANGADVNAHDTWGLTPLHLAAFHGHQEIVEVLLKHGADVNAQDFYGKTPLHLAALRGHLEIVEVLLKYGADVNAQDQFGKTAFDISIDNGNEDLAEILQKAA
A. 9.02

Q. Respond only with pIC50 recorded for Protein #29 (designed binder) MRGSHHHHHHGSDLGKKLLEAARAGQDDEVRILMANGADVNAKYEDGLTPLHLAAFYGHLEIVEVLLKHGADVNATDAWGHTPLHLAAYYGHLEIVEVLLKYGADVNTHDKEGMTALHLAALTGHLEIVEVLLKNGADVNAQDKFGKTAFDISIDNGNEDLAEILQKAA
A. 8.87
